- Test system: ORYSAT (Rice, Tebonnet)
- Assay text: Flooded paddy, post-transplant rice tolerance
- Format: in vivo, Oryza sativa, (L.) Tebonnet
- Measurement context: flooded paddy, post-transplant rice; rate 0.0320 kg/ha; rated 3-4 weeks after treatment; 0-9 rating scale
Threshold check on herbicidal rating, ORYSAT (rice tolerance): at or above 8 gives 1.0, strictly below gives 0.0.

Below are worked cases with known answers.
Compound	Discrete label
Cn1c(C(F)(F)F)cc(=O)n(-c2cc3c(C4OCCCO4)nsc3cc2F)c1=O [Compound 62]	1.0
Cn1c(C(F)(F)F)cc(=O)n(-c2ccc3snc(C4OCCS4)c3c2)c1=O (centres unmarked) [Compound 31]	0.0
CC1CCOC(c2nsc3ccc(-n4c(=O)cc(C(F)(F)F)n(C)c4=O)cc23)O1 (centres unmarked) [Compound 37]	1.0
Cn1c(C(F)(F)F)cc(=O)n(-c2ccc3snc(C4OC(=O)C(C)(C)O4)c3c2)c1=O (centres unmarked) [Compound 71]	0.0

[ask] Has Cn1c(C(F)(F)F)cc(=O)n(-c2ccc3snc(-c4ccccn4)c3c2)c1=O [Compound 9] a recorded herbicidal rating, ORYSAT (rice tolerance) greater than or equal to 8?
[reply] 0.0

[ask] Has Cn1c(C(F)(F)F)cc(=O)n(-c2ccc3snc(-c4cccs4)c3c2)c1=O [Compound 3] a recorded herbicidal rating, ORYSAT (rice tolerance) greater than or equal to 8?
[reply] 0.0

[ask] Has C[C@@H]1C[C@H](C)OC(c2nsc3ccc(-n4c(=O)cc(C(F)(F)F)n(C)c4=O)cc23)O1 (some centres unmarked) [Compound 51] a recorded herbicidal rating, ORYSAT (rice tolerance) greater than or equal to 8?
[reply] 1.0

[ask] Has Cc1cccnc1-c1nsc2cc(F)c(-n3c(=O)cc(C(F)(F)F)n(C)c3=O)cc12 [Compound 44] a recorded herbicidal rating, ORYSAT (rice tolerance) greater than or equal to 8?
[reply] 0.0

----------
Catalogue of herbicidal rating, MOOVA values
- Test system: MOOVA (Monochoria vaginalis)
- Assay text: Flooded paddy, preemergence weed control
- Assay type: in vivo, Presl.
- Measurement context: rate 0.0320 kg/ha, rated 3-4 weeks after treatment, 0-9 rating scale
A bare number is all that is needed in reply.

Example entries begin here.
Compound	herbicidal rating, MOOVA
Cn1c(C(F)(F)F)cc(=O)n(-c2ccc3snc(C4OCCS4)c3c2)c1=O (stereo not shown) [Compound 31]	9.0
Cc1csc(-c2nsc3ccc(-n4c(=O)cc(C(F)(F)F)n(C)c4=O)cc23)n1 [Compound 7]	9.0
Cn1c(C(F)(F)F)cc(=O)n(-c2ccc3snc(-c4ccsc4)c3c2)c1=O [Compound 1]	9.0
Cn1c(C(F)(F)F)cc(=O)n(-c2ccc3snc(C4SCCS4)c3c2)c1=O [Compound 24]	5.0
Cn1c(C(F)(F)F)cc(=O)n(-c2ccc3snc(-c4ccoc4)c3c2)c1=O [Compound 83]	9.0

[ask] Fill in reported herbicidal rating, MOOVA for this entry: Cc1ccc(-c2nsc3ccc(-n4c(=O)cc(C(F)(F)F)n(C)c4=O)cc23)nc1 [Compound 42]
[reply] 8.0

[ask] Fill in reported herbicidal rating, MOOVA for this entry: Cc1nn(-c2nsc3ccc(-n4c(=O)cc(C(F)(F)F)n(C)c4=O)cc23)c(C)c1C [Compound 49]
[reply] 0.0

[ask] Fill in reported herbicidal rating, MOOVA for this entry: C[C@@H]1OC(c2nsc3cc(F)c(-n4c(=O)cc(C(F)(F)F)n(C)c4=O)cc23)O[C@@H]1C (stereo partly shown) [Compound 63]
[reply] 9.0

[ask] Fill in reported herbicidal rating, MOOVA for this entry: CC1=CC(C)(C)OC(c2nsc3ccc(-n4c(=O)cc(C(F)(F)F)n(C)c4=O)cc23)C1 (stereo not shown) [Compound 65]
[reply] 0.0

[ask] Fill in reported herbicidal rating, MOOVA for this entry: Cn1ccnc1-c1nsc2ccc(-n3c(=O)cc(C(F)(F)F)n(C)c3=O)cc12 [Compound 5]
[reply] 2.0
